# System: glycogen synthase kinase-3 (GSK3A per assay name; protocol says GSK3B)
# assay_comment: GSK3 binders on small-molecule microarrays, primary screen, biochemical, small-molecule microarray, 635 nm fluorescence, GSK3A (AID 1103); note: the record names both GSK3A and GSK3B
# condition_set: small-molecule microarray binding, fluorescence 635 nm; higher = more signal
Tag: 1 if measured composite z-score is not below 0.6, -1 if it is.

These solved cases illustrate the format of a correct answer.
- C=C/C=C/[C@@H]1C(=C)CN([C@@H](Cc2ccccc2)C(=O)OC)[C@H]1[C@@H](O)Cc1ccccc1: 1
- COc1ccc(CCNC(=O)[C@@]2(Cc3ccccc3I)c3ccccc3C(=O)N(Cc3ccccc3Cl)[C@H]2c2ccc(CO)cc2)cc1: -1
- COC(=O)[C@@]1(Cc2ccccc2)[C@H]2c3cc(C(=O)N(C)C)n(CCn4cc([N+](=O)[O-])nc4C)c3C[C@H]2CN1C(=O)c1ccccc1: 1
- O=C1[C@@]23C=C(Br)[C@H](C[C@@H]2COC3)[C@@]12CO2: 1
- CN1C(=O)[C@@H]2[C@@H](CC(COc3ccccc3)=C([C@H](O)CCc3ccccc3)[C@@H]2CO)C1=O: -1

# input Is it the case that `CC(C)CNC(=O)[C@@]1(C)c2ccccc2C(=O)N(Cc2cc(C(F)(F)F)cc(C(F)(F)F)c2)[C@H]1c1ccc(CO)cc1` has composite z-score reaching or exceeding 0.6?
# output -1

====

composite z-score for assorted compounds
# assay_comment: compound binding in COS7 lysate, probe aLAP1, primary screen, cell lysate, small-molecule microarray (AID 1124);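 note: lysate comes from COS7 cells expressing LAP1 and is applied at 0.3 µg/mL; score merges spot fluorescence near 667 nm with signal-to-noise over triplicate slides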
# condition_set: probe aLAP1, fluorescence, higher = more signal
Lab note: record just the number, no unit beside it.

// solved cases for composite z-score follow
- Cc1cccc([C@H]2C[C@H]3C(I)=C[C@@H]2C(=O)[C@]32CO2)c1: 0.466
- C[C@]1(C(=O)NCC(F)(F)F)c2ccccc2C(=O)N(Cc2ccccc2)[C@H]1c1ccc(CO)cc1: 0.498
- COCCOC(=O)N1C(=O)[C@@]2(c3cc(C#CCNC(N)=O)ccc31)[C@H](c1ccc(O)cc1)N1[C@H](c3ccccc3)[C@H](c3ccccc3)OC(=O)[C@H]1[C@@H]2C(N)=O: -0.38
- COc1ccc(C#Cc2ccc3c(c2)[C@]2(C(=O)N3)[C@H](c3ccc(OCCO)cc3)N3[C@H](c4ccccc4)[C@H](c4ccccc4)OC(=O)[C@H]3[C@@H]2C(=O)N2CCc3cc(OC)c(OC)cc3C2)cc1: 0.216

# evaluate next
# input Reported composite z-score for COc1ccc(C(O)C2C=CC3C(=O)N(c4ccccc4)C(=O)C3N2Nc2ccccc2F)cc1 (stereo not given) : what is it?
# output 1.14

====

In this section, each of the compounds is paired with its reported composite z-score.
# System: Noggin (protein binding on small-molecule microarray)
# assay_comment: Noggin binders on small-molecule microarray, primary screen, biochemical, 635/667 nm fluorescence (AID 1095);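 note: score merges 667 nm feature fluorescence with signal to noise over triplicate slides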
# condition_set: 635 nm fluorescence, higher = more signal

* COCCCNC(=O)[C@@]1(c2ccc([N+](=O)[O-])cc2)CC(=O)N(C(C)C)[C@@H]1c1ccc(CO)cc1 | -0.363
* COc1ccc([Si](C)(C)[C@@H]2[C@@H](CC(=O)N3Cc4ccccc4C[C@H]3CO)O[C@]3(C(=O)N(Cc4ccc(N5CCC5=O)cc4)c4ccccc43)[C@H]2C)cc1 | 1.32
* COCCOC(=O)N1C(=O)[C@@]2(c3cc(C#CCNC(N)=O)ccc31)[C@H](c1ccc(O)cc1)N1[C@H](c3ccccc3)[C@H](c3ccccc3)OC(=O)[C@H]1[C@@H]2C(=O)N1CCN(c2ncccn2)CC1 | 0.96
* C=CC1c2cc(O)c(OC)cc2CCN1Cc1ccc([N+](=O)[O-])o1 (configuration not stated) | -0.273
* COC(=O)[C@@]1(Cc2ccc(OC)cc2)[C@H]2c3cc(C(=O)N4CCCC4)n(Cc4cc(C)n(C)n4)c3C[C@H]2CN1C(=O)c1ccccc1 | -0.513
* COc1ccc([Si](C)(C)[C@H]2[C@H](CC(=O)N3Cc4ccccc4C[C@H]3CO)O[C@@]3(C(=O)N(Cc4ccc(N5C(=O)c6cccc7cccc5c67)cc4)c4ccccc43)[C@@H]2C)cc1 | 1.14

// next entry
# input Which composite z-score is reported for this compound? `C=C(COC)/C(=C/C[C@@H](OC(=O)c1ccncc1)c1ccccc1OCCO)c1cc(C(=O)OC)ccc1OC`
# output -0.341

Where do these numbers come from? They come from PubChem BioAssay.
